// reported inhibition for each item listed
- test protocol: inhibitors of the yeast RAM network, pilot screen, dse1pr::URA3 reporter, 5-FOA selection (AID 869);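 note: 0% = DMSO wells with no growth and 100% = 10 µM 1-NA-PP1 with full growth; RAM network block rescues cells from 5-FOA so hits raise OD615 growth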
- test conditions: S. cerevisiae dse1pr::URA3 5-FOA growth, OD615, 2 d; at 10 µM; stronger effect = higher value; strain carries analog-sensitive mutant Cbk1 kinase
The source made the active and inactive calls.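 Rule for the calls: active = inhibition over a set limit, the all-compound mean plus 3 SD, in both replicate runs; inconclusive = over that limit in just one replicate run; inactive = at or under that limit in both runs.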

Prompt: # get_value(readout='inhibition', item= COc1ccc(-n2c(Cn3c(=O)sc4ccccc43)nnc2SCC(=O)N2CCCC2)cc1 )
Completion: 1.5% (inactive)

###

- test protocol: growth suppression of beta-catenin knockout HCT116, pilot screen, human colon tumor cells (AID 823);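 note: 0% = wells killed by 20 µM Hyamine and 100% = untreated DMSO cell wells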
- test conditions: CellTiter-Glo, 60 h, at 10 µM, stronger effect = lower value
Inconclusive results are not listed.
endpoint label: viability (%)
Could you give me the number in %? Just the number is fine.

Example compounds with recorded viability:
Prompt: Recorded viability for Clc1ccc(-n2ncc3c(NCC4CCCO4)ncnc32)cc1 (centres undefined) , please?
Completion: 37.6

Prompt: Could you tell me which viability is on file for COc1ccc(C2CC(c3ccc(F)cc3)Nc3nc(N)nn32)cc1OC (centres undefined) ?
Completion: 102

Prompt: // returns reported viability for input O=C(N1CCN(c2ccc(F)cc2)CC1)C12CC3CC(CC(C3)C1)C2
Completion: 84.1

Below: the item to evaluate.
Prompt: Given the entry CC(c1ccccc1)N1CC(C(=O)N2CCN(c3ccccc3)CC2)CC1=O (centres undefined) , report its measured viability.
Completion: 104

###

- test protocol: inhibitors of the yeast RAM network, pilot screen, dse1pr::URA3 reporter, 5-FOA selection (AID 869);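 note: 0% = DMSO wells with no growth and 100% = 10 µM 1-NA-PP1 with full growth; RAM network block rescues cells from 5-FOA so hits raise OD615 growth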
- test conditions: S. cerevisiae dse1pr::URA3 5-FOA growth, OD615, 2 d; at 10 µM; stronger effect = higher value; strain carries analog-sensitive mutant Cbk1 kinase
// reported inhibition per item
Quick note: give the figure in %, leave out the unit.

Answered cases to consult:
Prompt: Value lookup for inhibition; key = Cc1ccc(S(=O)(=O)NCCCN2CCOCC2)c(C)c1
Completion: 2.29

Prompt: Could you tell me which inhibition is on file for CCCC(=O)NCCCc1nc2ccccc2n1CCC ?
Completion: 1.56

Continuing:
Prompt: May I ask what inhibition has been recorded for CCn1ccc(C(=O)Nc2ccc(Cl)cn2)n1 ?
Completion: 1.48

Prompt: # lookup: inhibition of CCOC(=O)N1CCN(C2CC(=O)N(c3ccccc3)C2=O)CC1 (centres undefined)
Completion: 0.005

Prompt: Recorded inhibition of CC(=O)NCc1nc2ccccc2n1Cc1ccccc1C , please.
Completion: 1.05

Prompt: I am curious: what inhibition value has been reported for O=C(O)[C@H](Cc1ccccc1)N1Cc2ccccc2C1=O ?
Completion: 1.4

###

In this section we review reported viability values for a set of molecules.
- test protocol: reducers of endogenous Her2 protein level, primary screen, SKBR3 breast tumor cells, AlphaScreen, ATP viability (AID 461);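 note: percent of carrier control wells set as 100% viability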
- test conditions: 18-24 h, measured here: SKBR3 viability, ATP luminescence, at 10 µM
Write the value in % as a bare number.

The examples below pair each entry with its known result.
Prompt: Record request: viability value, item Cn1c(=O)c2[nH]c(NCC3CCCO3)nc2n(-c2ccccc2)c1=O (stereo not given)
Completion: 94.5

Prompt: Report viability for CC1=CCC(C(C)(C)NC(=O)c2ccccc2)C/C1=N\O (stereo not given) please.
Completion: 104

Prompt: Recorded viability of CCOC(=O)c1cc(CC)sc1NC(=O)CCC(=O)O , please.
Completion: 121

Prompt: // returns reported viability for input CC1=C(C(=O)Nc2ccccc2)C(c2ccco2)C(C#N)=C(SCC(=O)Nc2cccc(C)c2C)N1 (stereo not given)
Completion: 104

Further cases:
Prompt: I have this molecule here, COc1ccc(C(=O)N2CCCc3ccccc32)cc1 , and I need its recorded viability.
Completion: 87.5
